- Tested on: Lefty1
- ASSAY_NAME: Lefty1 binders on small-molecule microarrays, primary screen, biochemical, small-molecule microarray, 635/667 nm fluorescence (AID 1139)
- STUDY_CONDITIONS: small-molecule microarray binding, fluorescence 635/667; higher = more signal
Kindly state composite z-score for each of the entries shown.
Just the number, please.

Q) Could you share which composite z-score value was measured for CCCC=C(CCC)[C@@H](NS(=O)(=O)c1cccc2cccnc12)c1ccc(-c2ccccc2)cc1 ?
A) 1.11

Q) Recorded composite z-score of CCOC(=O)C[C@H]1[C@H](OC(=O)c2ccc(-c3ccccc3)cc2)[C@@H](NC(=O)CC(C)C)c2cc(OCCCO)ccc2N1C(=O)c1ccccc1 , please.
A) 0.369

Q) What value of composite z-score has been reported for the following molecule? CCCC=C(CCC)[C@@H](NC(=O)CCc1ccccc1)c1ccc(C(F)(F)F)cc1
A) 0.17

Q) Which measured composite z-score value corresponds to NCCCCCNC(=O)[C@@H]1C[C@@H]2C(=O)N3CCC[C@H]3C(=O)N2[C@@H]1c1ccc(O)cc1 ?
A) 1.08

Q) Any idea what composite z-score was measured for C=C(C(=O)CC[C@@H](OC(=O)c1ccccc1-c1ccccc1C(=O)O)c1ccccc1OCCO)C(C)C ?
A) 1.58

Q) Name the reported composite z-score value associated with the molecule CCN(CC)c1ccc(N2CC=CC34O[C@@H]5C=CCCOC(=O)C5[C@H]3C(=O)N(CCO)[C@@H]4C2=O)cc1 (stereo partly specified)
A) -1

Q) Would you mind telling me what composite z-score value was observed for CCOC(=O)C1=CCC(c2ccccc2)N(S(=O)(=O)c2ccc([N+](=O)[O-])cc2)C1 (stereo unspecified) ?
A) -0.111

Q) Item under review: C=CCN1C(=O)[C@]2(O[C@H](CCO)[C@@H]([Si](C)(C)c3ccc(OC)cc3)[C@@H]2C)c2cc(NC(=O)c3ccc(OC)cc3)ccc21 . Reported composite z-score?
A) 1.03

Q) Requested field: composite z-score. Item: CCOC(=O)C1=CCC(c2ccco2)N(S(=O)(=O)c2ccc(C)cc2)C1 (stereo unspecified)
A) 0.851

Q) Which composite z-score is reported for this molecule? CC(C)C[C@@H]1NC(=O)CNC(=O)[C@@]23C(=O)N[C@@H](Cc4ccccc4)C2[C@H](C)[C@@]2(C)O[C@H]2C3/C=C/C/C=C\CNC1=O (stereo partly specified)
A) 1.07

Q) Reported composite z-score, molecule CN1C(=O)C2C=CC(C(O)c3cc(C(F)(F)F)cc(C(F)(F)F)c3)N(Nc3ccccc3)C2C1=O (stereo unspecified) : ____
A) 0.302

Q) // returns reported composite z-score for input O=C1C2C=CC(C(O)c3ccco3)N(Nc3ccccc3)C2C(=O)N1c1ccccc1 (stereo unspecified)
A) -0.907

Q) Name the recorded composite z-score for O=C(CS)NCCCCCCNC(=O)[C@@H]1C[C@@H]2C(=O)NCC(=O)N2[C@@H]1c1ccc(O)cc1 .
A) -0.628

Q) State the recorded composite z-score for this entry: Cc1ccc(N2C(=O)c3ccccc3[C@](C)(C(=O)NCc3ccccc3)[C@@H]2c2ccc(CO)cc2)nc1
A) -0.0828

Q) Find the recorded composite z-score belonging to O=C1C2C=CC(C(O)c3cccc(O)c3)N(Nc3ccccc3)C2C(=O)N1c1ccccc1 (stereo unspecified) and report it.
A) -0.199

Q) What does the data say about its composite z-score? Entry: CCOC(=O)C[C@H]1[C@H](OC(=O)c2ccccc2-c2ccccc2)[C@@H](NC(=O)c2ccc3ccccc3n2)c2cc(OCCCO)ccc2N1C(=O)c1ccccc1
A) 0.634
